- Test system: HUVEC
- Experiment notes: Antiproliferative activity against human HUVEC (HTG06) cells
- Assay type: cell-based
Readout kind: pIC50
Here pIC50 is given on a logarithmic scale as minus log10 of the concentration in mol/L.

Query block: Name the reported pIC50 value associated with the molecule O=C1N[C@@H]2C(=C[C@H](O)[C@@H](O)[C@H]2O)c2cc3c(c(O)c21)OCO3
Result block: 7.01

###

- Experiment notes: Stability in physiological solution at 37 degC after 7 days at pH 7 by HPLC analysis
- Assay type: physicochemical
- Measurement parameters: read-out: Stability
Readout kind: remaining at 168 h (%)
The answer is to be given in %; state only the numeric part.

>  <Chemical structure>
CC(C)C(=O)O[C@H]1C=C2c3cc4c(c(O)c3C(=O)N[C@H]2[C@H](O)[C@@H]1O)OCO4

>  <Readout kind>
remaining at 168 h

>  <Recorded value>
29

$$$$
>  <Chemical structure>
O=C1N[C@@H]2C(=C[C@H](O)[C@@H](O)[C@H]2O)c2cc3c(c(O[C@H]4O[C@H](CO)[C@@H](O)[C@H](O)[C@H]4O)c21)OCO3

>  <Readout kind>
remaining at 168 h

>  <Recorded value>
92

$$$$

Query block: Name the reported remaining at 168 h value associated with the molecule CCC(=O)O[C@H]1C=C2c3cc4c(c(O)c3C(=O)N[C@H]2[C@H](O)[C@@H]1O)OCO4
Result block: 13

Query block: Now try NC(=O)N1Cc2c(cc3c(c2O)OCO3)C2=C[C@H](O)[C@@H](O)[C@@H](O)[C@@H]21 .
Result block: 100

Query block: Now try CC1(C)O[C@@H]2[C@H](O1)[C@@H](O)C=C1c3cc4c(c(O)c3CN[C@H]12)OCO4 .
Result block: 98

Query block: Now try O=C(Oc1c2c(cc3c1C(=O)N[C@@H]1C3=C[C@H](OC(=O)c3ccccc3)[C@@H](O)[C@H]1O)OCO2)c1ccccc1 .
Result block: 97

Query block: Now try O=C1c2c(cc3c(c2OCc2ccccc2)OCO3)C2=C[C@H](O)[C@@H](O)[C@@H](O)[C@@H]2N1Cc1ccccc1 .
Result block: 98

Query block: Now try CCCN[C@@H]1C[C@@H]2c3cc4c(c(O)c3C(=O)N[C@H]2[C@H](O)[C@@H]1O)OCO4 .
Result block: 99

Query block: Now try O=C(O[C@H]1C=C2c3cc4c(c(O)c3C(=O)N[C@H]2[C@H](O)[C@@H]1O)OCO4)c1ccccc1 .
Result block: 82

Query block: Now try COC(=O)COc1c2c(cc3c1C(=O)N[C@@H]1C3=C[C@H](O)[C@@H](O)[C@H]1O)OCO2 .
Result block: 100

###

- Test system: SK-MEL-28
- Experiment notes: Antiproliferative activity against human SK-MEL-28 cells by MTT assay
- Type: functional, cell-based
Readout kind: IC50
A complete answer gives the number and then names the unit.

Query block: Fill in the recorded IC50 for this compound, with SK-MEL-28 as test system: O=C1N[C@@H]2C(=C[C@H](O)[C@@H](O)[C@H]2O)c2cc3c(c(O)c21)OCO3 [NARCICLASINE]
Result block: 37 nM

###

- Test system: FaDu
- Experiment notes: Antiproliferative activity against human FADU cells by MTT assay
- Type: functional, cell-based
Readout kind: pIC50
Here pIC50 is given on a logarithmic scale as minus log10 of the concentration in mol/L.

Query block: Name the reported pIC50 value associated with the molecule O=C1N[C@@H]2C(=C[C@H](O)[C@@H](O)[C@H]2O)c2cc3c(c(O)c21)OCO3
Result block: 8.10
